- MEASUREMENT_DESCRIPTION: Anti-inflammatory activity against human derived medium respond PBMC cells assessed as inhibition in stimulated TNF-alpha cytokine release incubated for 2 hrs in the presence of LPS/SEB/aCD28 by Luminex based sandwich immunoassay
- Assay type: functional, cell-based
READOUT_LABEL: pIC50
Answers are plain numbers, as −log10 of the molar value.

For the compound O=C1c2ccc(Nc3ccc(F)cc3F)cc2CCc2ccc(OC[C@H](O)CO)cc21 [Skepinone-L] , report pIC50.
6.07

* * *

- MEASUREMENT_DESCRIPTION: Anti-inflammatory activity against human derived high respond PBMC cells assessed as inhibition in stimulated IL-1beta cytokine release incubated for 2 hrs in the presence of LPS/SEB/aCD28 by Luminex based sandwich immunoassay
- Assay type: functional, cell-based
READOUT_LABEL: pIC50
Answers are plain numbers, as −log10 of the molar value.

Return reported pIC50. Input compound: O=C1c2ccc(Nc3ccc(F)cc3F)cc2CCc2ccc(OC[C@H](O)CO)cc21 [Skepinone-L]
7.52
